Target: MfANGPTL4(1-130)-His
Sequence (as listed by the source): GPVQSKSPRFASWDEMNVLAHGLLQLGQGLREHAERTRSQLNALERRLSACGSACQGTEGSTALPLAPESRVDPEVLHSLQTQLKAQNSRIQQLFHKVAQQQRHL
Assay: BIACORE, full mAb or Fab over amino-coupled MfANGPTL4(1-130)-His
Format: binding, cynomolgus monkey
Details: pH 7.2, 25° C.
value-kind: kd (s⁻¹)
Report the figure in s⁻¹ without appending any unit label.

Example entries and their recorded answers appear below.
Reported kd for H1H284P Fab: Fab fragment of H1H284P prepared by papain digestion (antibody, V domains shown) VH: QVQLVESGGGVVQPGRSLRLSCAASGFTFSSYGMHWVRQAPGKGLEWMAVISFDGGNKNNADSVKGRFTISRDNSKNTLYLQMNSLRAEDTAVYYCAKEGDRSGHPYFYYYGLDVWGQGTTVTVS VL: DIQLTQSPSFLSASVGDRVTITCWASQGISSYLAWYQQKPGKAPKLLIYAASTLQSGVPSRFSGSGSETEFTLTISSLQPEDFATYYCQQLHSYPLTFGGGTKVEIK was 0.00313

Reported kd for H1H268P: anti-hANGPTL4 antibody, hIgG1 isotype, HCVR/LCVR SEQ ID NOs 42/44 (antibody, V domains shown) VH: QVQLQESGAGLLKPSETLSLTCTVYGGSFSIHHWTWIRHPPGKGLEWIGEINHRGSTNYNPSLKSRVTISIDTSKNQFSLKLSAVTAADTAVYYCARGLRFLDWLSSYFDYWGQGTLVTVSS VL: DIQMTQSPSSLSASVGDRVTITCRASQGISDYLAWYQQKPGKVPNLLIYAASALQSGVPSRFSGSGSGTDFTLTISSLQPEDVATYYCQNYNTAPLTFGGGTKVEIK was 4.76e-05

For the next question, use this molecule.
Reported kd for H1H268P Fab: Fab fragment of H1H268P prepared by papain digestion (antibody, V domains shown) VH: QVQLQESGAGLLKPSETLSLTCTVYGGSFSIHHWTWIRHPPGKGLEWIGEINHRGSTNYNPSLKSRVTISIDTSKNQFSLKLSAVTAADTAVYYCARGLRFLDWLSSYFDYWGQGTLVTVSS VL: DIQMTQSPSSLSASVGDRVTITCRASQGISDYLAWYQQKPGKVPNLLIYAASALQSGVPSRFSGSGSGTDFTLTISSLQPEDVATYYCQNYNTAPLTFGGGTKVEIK was 0.00171
